Data provenance: patent US20240174727A1

# assayed system: T1, rat NPRA (rat, UniProt P18910 29-1057)
# T1 sequence (looked up): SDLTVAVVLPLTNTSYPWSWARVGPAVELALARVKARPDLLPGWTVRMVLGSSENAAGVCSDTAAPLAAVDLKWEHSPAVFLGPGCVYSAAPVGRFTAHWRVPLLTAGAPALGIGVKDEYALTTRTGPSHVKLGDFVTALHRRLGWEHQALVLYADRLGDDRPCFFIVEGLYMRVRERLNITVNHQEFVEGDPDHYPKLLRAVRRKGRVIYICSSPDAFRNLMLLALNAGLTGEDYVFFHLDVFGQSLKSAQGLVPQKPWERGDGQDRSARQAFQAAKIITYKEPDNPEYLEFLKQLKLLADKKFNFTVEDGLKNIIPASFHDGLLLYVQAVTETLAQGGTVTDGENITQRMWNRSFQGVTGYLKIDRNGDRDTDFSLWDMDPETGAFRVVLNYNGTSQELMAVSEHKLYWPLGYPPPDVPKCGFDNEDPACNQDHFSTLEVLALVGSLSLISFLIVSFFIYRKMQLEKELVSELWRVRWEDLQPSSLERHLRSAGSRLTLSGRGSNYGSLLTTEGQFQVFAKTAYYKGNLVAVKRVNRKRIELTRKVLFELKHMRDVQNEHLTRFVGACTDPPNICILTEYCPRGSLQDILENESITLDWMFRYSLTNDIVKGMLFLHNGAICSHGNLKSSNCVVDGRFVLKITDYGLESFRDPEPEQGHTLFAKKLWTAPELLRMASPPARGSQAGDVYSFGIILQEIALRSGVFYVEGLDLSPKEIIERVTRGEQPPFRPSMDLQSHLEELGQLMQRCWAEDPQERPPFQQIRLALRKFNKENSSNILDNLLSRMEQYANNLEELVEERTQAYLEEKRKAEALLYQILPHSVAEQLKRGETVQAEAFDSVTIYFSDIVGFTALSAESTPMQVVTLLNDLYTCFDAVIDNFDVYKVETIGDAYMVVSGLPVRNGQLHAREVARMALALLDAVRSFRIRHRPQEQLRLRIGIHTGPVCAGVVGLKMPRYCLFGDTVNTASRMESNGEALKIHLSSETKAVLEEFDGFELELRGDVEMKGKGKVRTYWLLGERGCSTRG
# test details: cell-based or functional assay
Numbered stars: 1 amine (or outer) side, 2 acyl side, 3 side chain; on linkers, the order of the positions; unused ones are H or OH. Bridge positions count the residues as written; N and C are the ends. Square brackets hold non-standard residues; d marks the D form. * marks the point of attachment. C20 diacid = O=C(O)CCCCCCCCCCCCCCCCCCC(=O)*; γGlu = O=C(O)[C@H](CCC(=O)[*:2])N[*:1]; 4Pal = N[C@@H](Cc1ccncc1)C(=O)O
measurement name: cGMP Assay (EC50, pM) w/BSA
Express it in pM; write the number only.

As a guide, the following entries are already answered.
1) {C20 diacid}-[γGlu]EKEKEKGS[4Pal]RRSSCFGGRIGRIGHQSGLGCPSFRHGGPSSGAPPPS-NH2 (disulfide 15-31) [Example 29] | 1.91e+06
2) {C20 diacid}-[γGlu]EKEKEKGS[4Pal]RRSSCFGGRIDRIGHQSGLGCPSFRHSGAPPPSE-NH2 (disulfide 15-31) [Example 39] | 93300
3) SXRRSSCFGGRIDRIGHYSGLGCPSFRHGGKSSGAPPPS (HOOC-(CH2)18-CO-(γGlu)-EKEKEKG-(AEEA)6-S-4Pal-RRSS[CFGGRIDRIGHYSGLGC]PSFRHGGKSSGAPPPS-NH2; thioacetal linkage between the bracketed Cys) [Example 92] | 290000

Input line: Report cGMP Assay (EC50, pM) w/BSA for XEKEKEKGSXRRSSCFGGRIDRIGHQSGLGCPSFRHGGPSSGAPPPS (not fully specified; HOOC-(CH2)18-CO-(γGlu)-EKEKEKGS-4Pal-RRSS[CFGGRIDRIGHQSGLGC]PSFRHGGPSSGAPPPS-NH2; thioacetal linkage between the bracketed Cys) [Example 69] please.
Output line: 804000

Input line: Lookup EKXRSSCFGGKIDRIGHYSGLGCPSFRHGSPSSGAPPPS (HOOC-(CH2)18-CO-(γGlu)-EKEKEKG-PEG24-EK-βAla-RSS[CFGGKIDRIGHYSGLGC]PSFRHGSPSSGAPPPS-NH2; thioacetal linkage between the bracketed Cys) [Example 6]
Output line: 596000
